- System: SK-MEL-28 melanoma
- assay-overview: NCI tumour cell line growth inhibition, 48 h
outcome-measure: GI50

The observed GI50 for CCC(C)[C@H](NC(=O)Nc1cc(C(F)(F)F)cc(C(F)(F)F)c1)C(=O)N[C@@H](Cc1cn(C)cn1)C(=O)OC (stereo partly drawn) when tested with SK-MEL-28 melanoma stands at 0.572 µM

The observed GI50 for O=C(Nc1cccc(O)c1)c1ccc(NC2=C(Cl)C(=O)N(Cc3ccc(Cl)cc3Cl)C2=O)cc1 when tested with SK-MEL-28 melanoma stands at 3.41 µM

The observed GI50 for COc1cc(/C=N/Nc2ncnc3c2cnn3-c2ccccc2)ccc1O when tested with SK-MEL-28 melanoma stands at 18.5 µM

The observed GI50 for Nc1ccc(C2=CC(c3ccc(Cl)cc3)N3C=CSC3=N2)cc1 (stereo not drawn) when tested with SK-MEL-28 melanoma stands at 4.86 µM

The observed GI50 for COc1ccc2c(c1OC)CO[C@@H]2[C@H]1c2c(cc3c(c2OC)OCO3)CCN1S(=O)(=O)c1cn(C)cn1 when tested with SK-MEL-28 melanoma stands at 5.4 µM

The observed GI50 for CC(=O)[O-].Cn1ccnc1CNCc1nccn1C.[Cu+2].[O-][Cl+3]([O-])([O-])[O-] when tested with SK-MEL-28 melanoma stands at > 100 µM

The observed GI50 for NC(=O)c1cc([N+](=O)[O-])c(Cl)c([N+](=O)[O-])c1Cl when tested with SK-MEL-28 melanoma stands at 1.74 µM

The observed GI50 for C[C@]12CC[C@H]3[C@@H](CC=C4C[C@@H](N5CCCC5)CC[C@@]43C)[C@@H]1C/C(=C\c1cccc(OCCN3CCOCC3)c1)[C@@H]2O when tested with SK-MEL-28 melanoma stands at 2.01 µM
